PROPERTY MEASURED: melting point

# STRUCTURE SMILES STRING, PROPERTY MEASURED, VAL
data = [
    ("COc1cccc(CNC(=O)c2nc3scc(C(=O)NCc4ccc(C(=O)O)cc4)c3c(=O)[nH]2)c1", "melting point", "254 to 255 °C"),
    ("Cc1ccc(Oc2c(C)c(NC(=O)CC(C)(C)C)c(C)c3c2OC(C)(C)C3)cc1", "melting point", "182 to 184 °C"),
    ("CN1Cc2c(C#C[Si](C)(C)C)ncn2-c2cccc(Cl)c2C1=O", "melting point", "186 to 187 °C"),
    ("CN(CCC=C1c2ccccc2C=Cc2ccccc21)CCC(=O)O", "melting point", "119 to 120 °C"),
    ("Oc1ccc(Oc2cccc(C(F)(F)F)n2)cc1", "melting point", "94 to 95 °C"),
]

* * *

Reported melting point values are given for each entry in this list.

# COMPOUND, melting point
records = [
    ("O=C(O)[C@@H](CC(=O)N1CCOCC1)NS(=O)(=O)c1ccc(Oc2ccccc2)cc1", "147 to 149 °C"),
    ("Cc1cc(CC(=O)O)cc(Cc2nc3c(F)c(F)cc(F)c3s2)c1", "127 to 129 °C"),
    ("C#CC1(c2ccc(OC)c(OC3CCCC3)c2)CCC2(CC1)OCCO2", "53.5 to 55 °C"),
    ("Cc1cc(C(=O)N(C2CCCCC2)C2CCCC2)ccc1Cn1cnc2cccnc21", "181 to 182 °C"),
    ("O=C(Nn1ccnc1)N1CCCCC1COCc1ccccc1Cl (stereo not given)", "91 to 92 °C"),
]

* * *

PROPERTY MEASURED: melting point

# COMPOUND, VAL
measured = [
    ("O=C(c1ccc(-n2ccnc2)cc1)N1CCN(S(=O)(=O)c2cc3cc(Cl)ccc3o2)CC1", "175 to 177 °C"),
    ("CCOC(=O)CCc1ccc(OCCCc2cn(-c3ccc(C(F)(F)F)cn3)nc2OCC)cc1OCc1ccccc1", "80 to 81 °C"),
    ("O=C(O)CN1C(=O)N(Cc2cccc([N+](=O)[O-])c2)C(=O)C1O (centres undefined)", "153 to 155 °C"),
    ("COc1cc(C(C)(C)O)c(OCc2ccccc2)cc1N1CCN(Cc2ccccc2)CC1", "94 to 96 °C"),
    ("COC(=O)N1CCCCc2cc(C3=NNC(=O)SC3C)ccc21 (centres undefined)", "182 °C"),
    ("O=C1C(=Cn2ccnc2)CSc2ccc(Cl)cc21", "139 to 141 °C"),
    ("Cc1ccc(N(CCN2CCC(C(=O)c3ccc(F)cc3)CC2)C(=O)c2cccc([N+](=O)[O-])c2)cc1", "131 to 134 °C"),
    ("CC1=NC(NC(=O)Nc2cccc(C)c2)C(=O)N(CC(=O)N2CCN(CCO)CC2)c2c(C)cccc21 (centres undefined)", "222 to 224 °C"),
    ("NC1CCN(c2c(F)cc3c(=O)c(C(=O)O)cn(C4CC4)c3c2F)C1 (centres undefined)", "290 to 292 °C"),
]

* * *

Each entry below carries its reported melting point.

# COMPOUND, melting point
records = [
    ("Nc1nc2ccccc2c2c1ncn2CCCCNC(=O)N1CCOCC1", "177 to 180 °C"),
    ("Cc1cccc(OC(C)(C)C(=O)NCCc2ccc(OC(C)(C)C(=O)O)cc2)c1", "85 to 88 °C"),
    ("CCN(C(=O)c1ccc(C(=O)c2cnc3ccccn23)cc1)c1ccccc1", "141 to 145 °C"),
    ("CCCCOc1nc(N)nc2[nH]cnc12", "165 °C"),
    ("Cc1ccc(S(=O)(=O)N2CCC(CC(C#N)(c3ccccc3)c3ccccc3)CC2)cc1", "130 °C"),
    ("Cc1cn(S(C)(=O)=O)c2c1C(=O)CC(c1ccccc1Cl)C2 (stereo not given)", "167 to 168 °C"),
    ("COc1ccc2c(Cc3c(Cl)cncc3Cl)nnc(NN)c2c1", "297 to 299 °C"),
    ("COc1cccc(N(C)c2nc(N)nc3[nH]c4ccccc4c23)c1", "245 to 246 °C"),
    ("CC(Cl)(Cl)C(NC(=O)c1cccc(Cl)c1)NC(=N[N+](=O)[O-])Nc1cccnc1 (stereo not given)", "160 to 161 °C"),
    ("CC(=O)OC1CSC(Oc2cncc(-c3ccc(F)nc3)c2)C(OC(C)=O)C1OC(C)=O (stereo not given)", "167 to 169 °C"),
]

* * *

PROPERTY MEASURED: melting point

# COMPOUND, VAL
records = [
    ("Cc1cc(C(N)C(=O)O)ccc1O (stereo not given)", "205 to 207 °C"),
    ("COc1ccc(C2CCNCC2)cc1OC", "98 to 100 °C"),
    ("Cc1ccc(C(=O)NC(NC(=S)Nc2cccnc2)C(C)C)cc1 (stereo not given)", "184 to 186 °C"),
    ("COc1ccc(CC2C3=C(CCCC3)CCN2C(=O)C2CCC2)cc1 (stereo not given)", "89 to 91 °C"),
    ("Cc1cnc2cc(N)ccc2n1", "163 to 164 °C"),
    ("Cc1ccc(-c2noc(-c3ccc4c(c3)C(C)(C)CCC4(C)C)n2)cc1", "106 to 109 °C"),
    ("CCc1c(C2=NN=C(C)Cc3cc4[nH]c(=O)oc4cc32)sc2cccc(F)c12", "297 to 299 °C"),
    ("CC(=O)CCCCCCCCCCCCC(C)=O", "80 °C"),
    ("O=C1C(C(c2ccccc2)c2ccccc2)NC2CCCC3C(C2)C13 (stereo not given)", "178 to 181 °C"),
    ("CCc1nc(OC)c(NC(=O)N2CCN(c3cc(Cl)cc(Cl)c3)CC2)cc1C(=O)Nc1cc(CO)cc(Nc2c3ccccc3nc3ccccc23)c1", "210 to 212 °C"),
]

* * *

PROPERTY MEASURED: melting point

# MOLECULE, VAL
data = [
    ("Cc1cc(CO)c(C)cc1O", "164 to 165 °C"),
    ("CCc1cc(Cl)c(OC)c(C(=O)N[C@H]2CCN(CCCC(=O)N3CCCC3)C[C@H]2OC)c1O (relative stereo)", "90.8 °C"),
    ("Cc1nc(N)nc(N)c1CCCC(C)c1ccc(-c2cc(F)cc(F)c2)cc1 (stereo not given)", "129 to 134 °C"),
    ("CN1CC[C@@H](c2c(O)cc(O)c3c(=O)cc(-c4cccc(F)c4Cl)oc23)[C@@H]1CO", "221 to 223 °C"),
    ("CCOC(=O)c1cn(Cc2ccccc2OC)c2sc(-c3ccc(N)cc3)c(CN(C)Cc3ccccc3)c2c1=O", "120 to 122 °C"),
    ("COc1cc2c(cc1O)CCN(Cc1cccc(C(C)=O)c1)C2", "132 to 134 °C"),
    ("CCOC(=O)/C=C(/c1ccc(OC)cc1)c1cc(C)cc(Cl)c1", "83 to 85 °C"),
    ("CC(C)Nc1nc2ccccc2n2cnnc12", "133 to 135 °C"),
    ("CC12CCC(C(=O)O)=CC1=CCC1C2CCC2(C)C(C(=O)c3ccc(F)cc3)CCC12 (stereo not given)", "255 °C"),
    ("CCOC(=O)CCCOc1ccc(C23CC4CC(CC(C4)C2)C3)cc1", "45 to 46 °C"),
]

* * *

melting point by entry:

# COMPOUND, melting point
measured = [
    ("CCOC(=O)c1cnc(-c2ccccc2OCC(C)C)[nH]c1=O", "89 to 91 °C"),
    ("CCOC(=O)CSc1nnsc1-c1ccc(C(C)(C)C)cc1", "62.5 to 63.5 °C"),
    ("CC(C)(C)[Si](OCC#Cc1ccc2ncc3c(c2c1)C(O)CCC3)(c1ccccc1)c1ccccc1 (stereo unspecified)", "132 to 133 °C"),
    ("O=C1NCC(CO)C1(c1ccccc1)c1ccccc1 (stereo unspecified)", "145 to 148 °C"),
    ("COc1ccc(Cl)cc1-c1c(N)c(=O)[nH]c2cc(C(F)(F)F)cc(C(F)(F)F)c12", "265 to 267 °C"),
    ("CCCN(CCC)Cc1csc(-c2ncn3c2CN(C)C(=O)c2c(Cl)cccc2-3)n1", "121 to 123 °C"),
    ("c1ccc2c(c1)CCc1ccccc1C2Nc1ccncc1", "263 to 264 °C"),
    ("O=C(O)c1c2c(nc3ccc(F)cc13)-c1ccc(-c3ccc(F)cc3)cc1CC2", "> 300 °C"),
    ("C#CCn1c(=O)c2c(nc(C#Cc3cccc(O)c3)n2C)n(C)c1=O", "271 °C"),
    ("Cc1cc(-c2cc(CN3CCN(C)CC3)c(=O)n(Cc3ccc(Cl)cc3)n2)ccc1F", "133 to 134 °C"),
    ("O=C(O)c1cc(-n2cccc2)cc(C(F)(F)F)c1", "191 to 192 °C"),
    ("Cc1nc(CS(C)=O)nc(OC(=O)N(C)C)c1C(C)C (stereo unspecified)", "80 °C"),
    ("O=[N+]([O-])c1cc(F)c(N2CCNCC2)cc1Cl", "91.5 °C"),
    ("CC(C)NC(=O)CN1CCN(CC2CSC3=C(O2)c2ccccc2C(=O)C3=O)CC1 (stereo unspecified)", "85 to 87 °C"),
    ("Cc1cccc(N(CCO)Cc2ccc3nc(N)n(Cc4nc(C)ccc4O)c3c2)c1", "210 °C"),
    ("O=C(NCC1CCN(C[C@H]2COc3ccc(Cl)cc3O2)CC1)c1ccccn1", "110 to 112 °C"),
    ("Cc1c(C(=O)Nc2ccc(N3CCN(C4CCOCC4)CC3)c(C#N)c2)cnn1-c1ccc(Cl)cc1", "276 °C"),
    ("COc1ccc(-c2ccn3c(=O)c(C(=O)O)ccc3c2)cc1", "> 250 °C"),
    ("O=C(O)c1cn(C2CC2)c2c(F)c(N3CCOC(CN4CCNCC4)C3)c(F)cc2c1=O (stereo unspecified)", "260 °C"),
    ("COc1ccc2c(c1Cl)Sc1ccccc1N2C(C)=O", "136 °C"),
    ("CS(=O)(=O)c1ccc(-n2nc(C(F)(F)F)cc2-c2ccc(-c3ccco3)cc2)cc1Cl", "139 to 142 °C"),
    ("N#Cc1ccc(-c2cn(-c3ccc(C#N)cc3)c(SCCO)n2)cc1", "> 300 °C"),
    ("CCOc1cc(Cc2cnc(N)nc2N)cc2c1OC(C)(C)C=C2C", "216 to 218 °C"),
    ("Nc1nc2ccccc2c2c1ncn2C1CC(O)C(CO)O1 (stereo unspecified)", "232 to 237 °C"),
    ("Cc1cc(F)ccc1C(=O)CCCN1CCC2(CC1)C(=O)NCN2c1ccccc1", "180 to 182 °C"),
    ("Cc1cc2c(cc1-c1cccc(C=O)c1)C(C)(C)CCC2(C)C", "104 to 105 °C"),
    ("COC(=O)c1ccc(C#CCO)cc1", "81 to 82 °C"),
    ("N#Cc1ccc(N2Cc3ccccc3C2)c2ccccc12", "156 to 158 °C"),
    ("NC(=O)C(CCC(=O)O)N1Cc2c(N)cccc2C1=O (stereo unspecified)", "334 to 336 °C"),
    ("COC(=O)c1cc(N)ccc1OC(C)=O", "99 to 100 °C"),
    ("CN1C(=O)CCC2(C)c3ccc(Sc4ccc5ccccc5c4)cc3CCC12 (single isomer, unassigned; (+))", "138 to 140 °C"),
    ("CCOC(=O)c1nc2cc(C)c(C)cc2nc1Cl", "109 to 111 °C"),
    ("COC(=O)Cc1cccc(CCC(CO)n2cnc(C(N)=O)c2)c1 (stereo unspecified)", "138 to 141 °C"),
    ("CS(=O)(=O)c1cc(Cl)ccc1C(=O)c1cnoc1C1CC1", "183 to 185 °C"),
    ("CCCCCc1ncc([C@H]2CC[C@H](CCC)CC2)cn1", "33 °C"),
    ("Cc1cccc(C2(CC(=O)O)CNC(=O)C2)c1 (stereo unspecified)", "152 to 154 °C"),
    ("O=P(O)(O)C(O)(Cc1c(Cl)cccc1Cl)P(=O)(O)O", "226 to 228 °C"),
    ("Cc1c(NC(=O)c2ccc(OCc3ccccc3)cc2)ccc2cc(CN3CCCC3)cnc12", "177 to 178 °C"),
    ("CNc1noc(C)c1Cl", "43 to 47 °C"),
    ("CN(C)c1nnc(-c2ccc3ncn(-c4ccc(OC(F)(F)F)cc4)c3c2)o1", "224 to 225 °C"),
    ("CCCCOC(=O)C1CC(n2cnc3c(Cl)ncnc32)C(O)C1O (stereo unspecified)", "104 to 106 °C"),
]
